biological target: Retinaldehyde dehydrogenase 3 (Homo sapiens) (UniProt P47895); test: qHTS for Inhibitors of the Aldehyde Dehydrogenase Family (ALDH1A3) Validation screen (AID 2061312); details: ALDH1A3 enzyme inhibition qHTS validation, fluorescence; series mostly up to 42.4 µM; further: nearly all actives have a fitted effect of over 45% in size
Records with an inconclusive call do not appear. Activity calls are given as the source filed them. The call rests on the fitted dose curve; in most records, active means well fitted inhibition curve with a large enough effect; inconclusive means small, poorly fitted or top-dose-only effect; inactive means no such curve, though single readings can be large or run the other way.
Hello, when you answer, please use one of the following outcomes: 1.0 (active), 0.0 (inactive)

Solved cases below.
INSERT INTO assay_data (compound, discretelabel) VALUES
  ('CCCC[N+]1(C)C2CC(OC(=O)[C@H](CO)c3ccccc3)CC1C1OC12 (some centres undefined)', 0.0),
  ('Clc1cnc(Oc2ccc(Oc3ncc(Cl)cc3Cl)cc2)c(Cl)c1', 0.0),
  ('CNCC(O)c1ccc(O)cc1 (centres undefined)', 0.0),
  ('O=C1C=CC(=O)C=C1', 0.0),
  ('O=C(N1CCCCC1Cc1ccccc1)n1cc(-c2ccc(-c3ccccc3)cc2)nn1 (centres undefined)', 0.0),
  ('Oc1ccc2c3c1O[C@H]1c4[nH]c5c(c4C[C@@]4(O)[C@@H](C2)N(CC2CC2)CC[C@]314)C[C@@]1(O)[C@H]2Cc3ccc(O)c4c3[C@@]1(CCN2CC1CC1)[C@H]5O4', 0.0);

Query :: Assay outcome for COC(=O)C1=CCCN(C)C1 : what was it?
Result :: 0.0

Query :: Assay outcome for CC(C)N(CCC(C(N)=O)(c1ccccc1)c1ccccn1)C(C)C (centres undefined) : what was it?
Result :: 0.0

Query :: Assay outcome for NC(=O)c1cc(N2CC2)c([N+](=O)[O-])cc1[N+](=O)[O-] : what was it?
Result :: 0.0

Query :: Assay outcome for CN(N=O)c1cc(O)ccc1O : what was it?
Result :: 1.0

Query :: Assay outcome for Cc1nccc2c1[nH]c1ccccc12 : what was it?
Result :: 0.0

Query :: Assay outcome for C1=C(c2cnc[nH]2)c2ccsc2CC1 : what was it?
Result :: 1.0

Query :: Assay outcome for Cc1cccc(C)c1NC(=O)CN1CCCC1=O : what was it?
Result :: 0.0

From: PubChem BioAssay (NCATS)
